Target: T1, human common cytokine receptor γ-chain (γc; IL-2Rγ; CD132), recombinant protein (human, UniProt P31785 23-262)
T1 construct: also called human IL-2R subunit CD132
T1 sequence: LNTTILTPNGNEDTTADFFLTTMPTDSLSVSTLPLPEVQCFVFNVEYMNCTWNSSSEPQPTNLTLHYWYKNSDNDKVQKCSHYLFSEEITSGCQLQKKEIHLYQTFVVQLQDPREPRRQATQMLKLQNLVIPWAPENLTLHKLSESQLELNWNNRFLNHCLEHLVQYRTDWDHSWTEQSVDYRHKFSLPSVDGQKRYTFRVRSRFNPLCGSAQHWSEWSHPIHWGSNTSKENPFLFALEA
Assay: P.E. binding ELISA
# OD450 nm per entry

# binder, OD450 nm (OD450 nm)
measured = [
    ("28-MP04D02 VHH (periplasmic extract) (VHH, soluble VHH in periplasmic extract) VHH: QVQLVESGGGLVQAGGSLRLSCAASGRTLSRYAMGWFRQAPGKEREFVTANSWGGDTYYADSVQGRFTFSRDNAKNTVYLQMNSLQPEDTAVYYCAAAPTSFATTAYSGSNSYAYWGQGTQVTVSS", 0.782),
    ("32-MP04A08 VHH (periplasmic extract) (VHH, soluble VHH in periplasmic extract) VHH: QVQLVESGGGLVQAGGSLRLSCAASGRTFGSTAVGWFRQVPGKEREFVSAINRSGSATTYADSVKGRFTISRDNAKNTVYLQMNSLTPEDTGVYYCAADSLPYGRPYYFQRSAGEYDYWGQGTQVTVSS", 0.407),
    ("36-MP07F02 VHH (periplasmic extract) (VHH, soluble VHH in periplasmic extract) VHH: QVQLVESGGGLVQAGGSLRLSCAASGRTLSRYAMGWFRQAPGSEREFVAASSWGGDTFYADSVEGRFTFSRDNAKNAVYLQMNSLQPEDTAAYYCAAAPTSFPTTAYSSSNSYAYWGQGTQVTVSS", 0.896),
    ("35-MP07G01 VHH (periplasmic extract) (VHH, soluble VHH in periplasmic extract) VHH: QVQLQESGGGLVQGGGSLRLSCAASGGIFSSYAMGWFRQAPGKEREFVAAISRSGRSTNYADSVKGRFTISRDNAKSTVYLQMNSLKPEETAVYYCAAGRYYNSAYDPSPGDFGSWGHGTQVTVSS", 0.134),
]
